System under test: Substance-P receptor (Homo sapiens, UniProt P25103)
Sequence (P25103 whole entry): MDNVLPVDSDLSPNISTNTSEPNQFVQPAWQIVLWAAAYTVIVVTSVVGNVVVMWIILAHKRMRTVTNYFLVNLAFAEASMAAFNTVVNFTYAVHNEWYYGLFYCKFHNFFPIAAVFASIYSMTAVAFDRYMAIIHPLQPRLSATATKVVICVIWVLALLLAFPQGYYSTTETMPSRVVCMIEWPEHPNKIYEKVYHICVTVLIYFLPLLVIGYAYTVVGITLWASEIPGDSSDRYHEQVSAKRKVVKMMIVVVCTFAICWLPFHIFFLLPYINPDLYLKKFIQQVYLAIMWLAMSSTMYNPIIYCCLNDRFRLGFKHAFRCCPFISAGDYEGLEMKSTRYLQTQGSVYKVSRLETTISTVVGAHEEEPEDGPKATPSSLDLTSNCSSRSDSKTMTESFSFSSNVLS
Test description: Inhibition of binding of [125I]SP to the CHO cell line expressing human Tachykinin receptor 1
Labelling field: enter Criterion met if recorded IC50 is less than 90 nM. Enter Criterion not met if it equals or exceeds that cut-off.

Some entries whose results are on file:
Prompt: Lab log: compare recorded IC50 with 90 nM; is it strictly lower for Cc1cc(C)cc(COC2C3CCN(CC3)C2C(Cc2ccccc2)c2ccccc2)c1 (stereo in doubt; 85) ?
Completion: Criterion met

Prompt: Lab log: compare recorded IC50 with 90 nM; is it strictly lower for FC(F)(F)c1cc(COC2C3CCN(CC3)C2C(Cc2ccccc2)c2ccccc2)cc(C(F)(F)F)c1 (stereo in doubt; 89) ?
Completion: Criterion met

Prompt: Below 90 nM on IC50? Entry N#Cc1ccccc1COC1C2CCN(CC2)C1C(c1ccccc1)c1ccccc1 (stereo unspecified)
Completion: Criterion met

Continuing:
Prompt: is_below(IC50, 90 nM) for Cc1ccccc1COC1C2CCN(CC2)C1C(c1ccccc1)c1ccccc1 (stereo unspecified) ?
Completion: Criterion not met

Prompt: hey, is IC50 for FC(F)(F)c1ccc(COC2C3CCN(CC3)C2C(c2ccccc2)c2ccccc2)cc1 (stereo unspecified) lower than 90 nM or not?
Completion: Criterion not met

Prompt: Please state whether IC50 is below 90 nM for Cc1cc(C)cc(COC2C3CCN(CC3)C2C(Cc2ccccc2)c2ccccc2)c1 (stereo in doubt; 86)
Completion: Criterion met

###

System under test: Substance-P receptor (Homo sapiens)
Test description: Inhibition of binding of [125I]SP to the CHO cell line expressing human Tachykinin receptor 1
Quantity kind: pIC50
pIC50 here: minus log base 10 of the concentration, concentration in moles per litre.

Example results:
For this compound ( Brc1ccccc1COC1C2CCN(CC2)C1C(c1ccccc1)c1ccccc1 (stereo not drawn) ), measured pIC50 is 7.43

FC(F)(F)c1cccc(COC2C3CCN(CC3)C2C(c2ccccc2)c2ccccc2)c1 (stereo not drawn) has a reported pIC50 of 6.52

Form: compound = Cc1cc(C)cc(COC2C3CCN(CC3)C2C(c2ccccc2)c2ccccc2)c1 (stereo in doubt; 72) ; pIC50 = 9.05

# pIC50 of COc1cc(C)cc(COC2C3CCN(CC3)C2C(c2ccccc2)c2ccccc2)c1 (stereo in doubt; 77) = 8.72

***
The compound identified as Clc1cc(Cl)cc(COC2C3CCN(CC3)C2C(c2ccccc2)c2ccccc2)c1 (stereo in doubt; 68) registered its pIC50 at 8.05

For this compound ( COc1cc(COC2C3CCN(CC3)C2C(c2ccccc2)c2ccccc2)cc(OC)c1 (stereo in doubt; 75) ), measured pIC50 is 8.03

Value of measured pIC50 for the entry Cc1ccc(C)c(COC2C3CCN(CC3)C2C(c2ccccc2)c2ccccc2)c1 (stereo not drawn) : 7.44

Data point: Clc1cc(Cl)cc(COC2C3CCN(CC3)C2C(c2ccccc2)c2ccccc2)c1 (stereo in doubt; 67) ; pIC50 = 8.46

###

In this section we review reported pIC50 values for a set of molecules.
System under test: UniProt P25103
Test description: Inhibition of binding of [125I]SP to the CHO cell line expressing human Tachykinin receptor 1
Please express pIC50 as -log10 of the molar concentration.

Record excerpt, results attached:
Given item FC(F)(F)c1ccccc1COC1C2CCN(CC2)C1C(c1ccccc1)c1ccccc1 (stereo not drawn) , the value recorded as its pIC50 is 7.17

Sure, the documented pIC50 for FC(F)(F)c1cc(CO[C@H]2C3CCN(CC3)[C@@H]2C(c2ccccc2)c2ccccc2)cc(C(F)(F)F)c1 is 9.70

Memo: c1ccc(COC2C3CCN(CC3)C2C(c2ccccc2)c2ccccc2)cc1 (stereo not drawn) , reported pIC50: 6.96

Others:
Measured pIC50, FC(F)(F)c1cc(COC2C3CCN(CC3)C2C(c2ccccc2)c2ccccc2)cc(C(F)(F)F)c1 (stereo in doubt; 69) : 8.80

# pIC50 (molecule: Fc1ccccc1COC1C2CCN(CC2)C1C(c1ccccc1)c1ccccc1 (stereo not drawn) ) is 7.03

Lab book: pIC50 of FC(F)(F)c1cc(CO[C@@H]2C3CCN(CC3)[C@H]2C(c2ccccc2)c2ccccc2)cc(C(F)(F)F)c1 noted as 6.90

Entry FC(F)(F)c1cc(COC2C3CCN(CC3)C2Cc2ccccc2)cc(C(F)(F)F)c1 (stereo not drawn) , pIC50 reported as 6.99

Form: molecule = FC(F)(F)c1cc(COC2C3CCN(CC3)C2C(c2ccccc2)c2ccccc2)cc(C(F)(F)F)c1 (stereo in doubt; 70) ; pIC50 = 8.57

// recorded pIC50 for Clc1ccc(COC2C3CCN(CC3)C2C(c2ccccc2)c2ccccc2)cc1 (stereo not drawn) : 6.38

The recorded pIC50 for entry FC(F)(F)c1cc(CO[C@@H]2C3CCN(CC3)[C@@H]2C(c2ccccc2)c2ccccc2)cc(C(F)(F)F)c1 equals 6.52

Lab book: pIC50 of c1ccc(CN[C@H]2C3CCN(CC3)[C@H]2C(c2ccccc2)c2ccccc2)cc1 noted as 10.07

For this molecule ( N#Cc1cccc(COC2C3CCN(CC3)C2C(c2ccccc2)c2ccccc2)c1 (stereo not drawn) ), measured pIC50 is 6.90

For reference, reported pIC50 for FC(F)(F)c1cc(COC2C3CCN(CC3)C2C(Cc2ccccc2)c2ccccc2)cc(C(F)(F)F)c1 (stereo in doubt; 87) stands at 8.41

Summary for this molecule, Cc1cc(I)cc(COC2C3CCN(CC3)C2C(c2ccccc2)c2ccccc2)c1 (stereo not drawn) : pIC50 is 9.49

For this molecule ( Fc1cccc(COC2C3CCN(CC3)C2C(c2ccccc2)c2ccccc2)c1 (stereo not drawn) ), measured pIC50 is 7.43

So, O=[N+]([O-])c1cccc(COC2C3CCN(CC3)C2C(c2ccccc2)c2ccccc2)c1 (stereo not drawn) ? Its pIC50 was 6.71

Sample COc1cccc(COC2C3CCN(CC3)C2C(c2ccccc2)c2ccccc2)c1 (stereo not drawn) ; pIC50 observed: 7.25

Value of measured pIC50 for the entry Clc1ccccc1COC1C2CCN(CC2)C1C(c1ccccc1)c1ccccc1 (stereo not drawn) : 7.10

###

System under test: UniProt P25103
Test description: Inhibition of binding of [125I]SP to the CHO cell line expressing human Tachykinin receptor 1
Quantity kind: log10 of IC50 (log10 of the value in nM)
Parameter value (number): base-10 log of IC50 in nM.

Recorded results for 8 compounds are shown here.
Quick note, log10 of IC50 for Fc1ccc(F)c(COC2C3CCN(CC3)C2C(c2ccccc2)c2ccccc2)c1 (centres undefined) landed at 2.03

Measured log10 of IC50, COc1cc(C)cc(COC2C3CCN(CC3)C2C(c2ccccc2)c2ccccc2)c1 (stereo in doubt; 78) : 0.18

Record FC(F)(F)c1cc(CO[C@H]2C3CCN(CC3)[C@H]2C(c2ccccc2)c2ccccc2)cc(C(F)(F)F)c1 [L-709210] . Reported log10 of IC50: -0.70

Lab note: Cc1cc(C)cc(COC2C3CCN(CC3)C2Cc2ccccc2)c1 (centres undefined) gave log10 of IC50 of 2.03

Memo: Cc1cccc(COC2C3CCN(CC3)C2C(c2ccccc2)c2ccccc2)c1 (centres undefined) , reported log10 of IC50: 1.30

Field log10 of IC50 (entry Cc1cc(COC2C3CCN(CC3)C2C(c2ccccc2)c2ccccc2)cc([Si](C)(C)C)c1 (centres undefined) ) reads -0.05

Briefly, log10 of IC50 measured for FC(F)(F)c1cc(COC2C3CCN(CC3)C2C(c2ccccc2)C2CCCCC2)cc(C(F)(F)F)c1 (centres undefined) : 0.88

Kindly note the recorded log10 of IC50 for Fc1cc(F)cc(COC2C3CCN(CC3)C2C(c2ccccc2)c2ccccc2)c1 (centres undefined) , which is 1.52

Lab note: next compound to report on.
log10 of IC50 in this record for Cc1ccc(COC2C3CCN(CC3)C2C(c2ccccc2)c2ccccc2)cc1C (centres undefined) : 2.24

###

System under test: Substance-P receptor (Homo sapiens)
Test description: Inhibition of binding of [125I]SP to the CHO cell line expressing human Tachykinin receptor 1
Label y when IC50 is strictly below 400 nM; at or above that, label n.

Examples from the recorded data:
Prompt: IC50 under 400 nM? Item: Fc1ccc(COC2C3CCN(CC3)C2C(c2ccccc2)c2ccccc2)cc1 (stereo not given)
Completion: y

Prompt: Please indicate whether the reported IC50 of c1ccc(Oc2cccc(COC3C4CCN(CC4)C3C(c3ccccc3)c3ccccc3)c2)cc1 (stereo not given) is strictly below 400 nM.
Completion: y

Prompt: API: query returns whether the compound falls strictly under 400 nM in IC50. Query: FC(F)(F)c1cc(COC2C3CCN(CC3)C2C(Cc2ccccc2)c2ccccc2)cc(C(F)(F)F)c1 (stereo in doubt; 88)
Completion: n

Next:
Prompt: I'd appreciate it if you could check whether Cc1ccc(COC2C3CCN(CC3)C2C(c2ccccc2)c2ccccc2)cc1 (stereo not given) has IC50 smaller than 400 nM.
Completion: y

Prompt: Input N#Cc1ccc(COC2C3CCN(CC3)C2C(c2ccccc2)c2ccccc2)cc1 (stereo not given) ; condition: IC50 strictly below 400 nM. Does it hold?
Completion: n
